Field: EC50. Provide a value for each of the compounds that follow.
Molecular target: Cdc42WT
Test: inhibitors of GTP binding, eight-GTPase multiplex, SAR follow-up, biochemical, bead flow cytometry, Mg non-chelator buffer, round 2 (AID 588622)
Conditions: bead-based flow cytometry multiplex GTP binding

Some entries whose results are on file:
[[record]]
compound = "CC1(C)CCc2sc(NC(=S)NC(=O)c3ccccc3)c(C(=O)O)c2C1"
readout_value = "62 nM"

[[record]]
compound = "CC1(C)Cc2c(sc(NC(=S)NC(=O)c3ccc(Br)cc3)c2C(=O)O)CO1"
readout_value = "539 nM"

[[record]]
compound = "CCC1(C)Cc2c(sc(NC(=S)NC(=O)c3ccccc3)c2C(=O)O)CO1 (configuration not stated)"
readout_value = "51 nM"

[[record]]
compound = "CC1(C)Cc2c(sc(NC(=S)NC(=O)c3ccco3)c2C(=O)O)CO1"
readout_value = "62 nM"

[[record]]
compound = "CC(C)(C)C1Cc2c(sc(NC(=S)NC(=O)c3ccccc3)c2C(=O)O)CO1 (configuration not stated)"
readout_value = "164 nM"


Quick batch: EC50 for everything below.
1. CC1(C)Cc2c(sc(NC(=S)NC(=O)C3CCCCC3)c2C(=O)O)CO1
2. O=C(NC(=S)Nc1sc2c(c1C(=O)O)CC1(CCCC1)OC2)c1ccccc1
3. Cc1ccccc1C(=O)NC(=S)Nc1sc2c(c1C(=O)O)CC(C)(C)OC2

*A*
["660 nM", "50 nM", "352 nM"]

Quick batch: EC50 for everything below.
1. COc1ccc(C(=O)NC(=S)Nc2sc3c(c2C(=O)O)CC(C)(C)OC3)cc1
2. COc1cccc(C(=O)NC(=S)Nc2sc3c(c2C(=O)O)CC(C)(C)OC3)c1
3. CC1(C)Cc2c(sc(NC(=S)NC(=O)c3ccc(F)cc3)c2C(=O)O)CO1
4. CC1(C)Cc2c(sc(NC(=S)NC(=O)c3cccs3)c2C(=O)O)CO1
5. Cc1cccc(C(=O)NC(=S)Nc2sc3c(c2C(=O)O)CC(C)(C)OC3)c1
6. CC1(C)Cc2c(sc(NC(=S)NC(=O)c3cccc(F)c3)c2C(=O)O)CO1

*A*
1. 203 nM
2. 251 nM
3. 171 nM
4. 30 nM
5. 1680 nM
6. 689 nM

FYI, the data here is from PubChem BioAssay AID588622.
